- Test system: HuVec Cells
- experiment_notes: Transfection of HuVec cells with DOTMA/DOPE/peptide and eGFP plasmid, fluorescent plate reader
- Assay type: cell-based
- experimental_conditions: DOTMA/DOPE 1:1 plus peptide with RRRRRRRRRRRR (SEQ ID NO: 109) at n terminus; EF1Alpha eGFP plasmid; 0.01 mL complex; 42 hours
Mark met for RF (Relative Fluorescence) of Transfection of HuVec Cells under 9000, not met if at or over.

Examples from the recorded data:
> print(dat)
                                  substance  label.value
1  327 (VAEIDGIEL; Peptidic transfection agent) [compound 327]      not met
2  341 (LRAHAVDVNG; Peptidic transfection agent) [compound 341]      not met
3  234 (YEKPGSPPREVVPRPRPGV; Peptidic transfection agent) [compound 234]      not met
4  363 (LAGSCLARFSTM; Peptidic transfection agent) [compound 363]          met
5  256 (RQVFQVAYIIIKA; Peptidic transfection agent) [compound 256]          met
6  224 (KPDVRSYTITG; Peptidic transfection agent) [compound 224]      not met

Q: Say whether its RF (Relative Fluorescence) of Transfection of HuVec Cells is strictly beneath 9000. Entry: 239 (KNSFMALYLSKGRLVFALG; Peptidic transfection agent) [compound 239]
Ans: met

----------
- System: HeLa Cells
- experiment_notes: Transfection of HeLa cells with DOTMA/SEQ ID NO: 72/peptide compared with Lipofectamine 2000
- Format: cell-based
- experimental_conditions: 0.4 μL of DOTMA/SEQ ID NO: 72/Peptide in well of a 96 well plate; fusogenic peptide 0.1 mg/mL
The following substances are shown together with reported RF (Relative Fluorescence), DOTMA/SEQ ID NO: 72/Peptide, HeLa Cells values.
Please give the numeric answer without any surrounding text.

Example entries and their recorded answers appear below.
> print(dat)
                                  substance  numeric.readout
1  503 (TAGSCLRKFSTMRRRRRRRRRRRR; Peptidic transfection agent) [compound 503]            16206
2  236 (KNNQKSEPLIGRKKT; Peptidic transfection agent) [compound 236]             7316
3  365 (ISRCQVCMKKRH; Peptidic transfection agent) [compound 365]            21540
4  344 (KGHRGF; Peptidic transfection agent) [compound 344]            12511
5  335 (TVFSVDQDNMLE; Peptidic transfection agent) [compound 335]             9753
6  336 (GEFYFDLRLKGDK; Peptidic transfection agent) [compound 336]            11334
7  350 (SIGFRGDGQTC; Peptidic transfection agent) [compound 350]            22255
8  357 (SETTVKYIFRLHE; Peptidic transfection agent) [compound 357]             9107

Q: Which RF (Relative Fluorescence), DOTMA/SEQ ID NO: 72/Peptide, HeLa Cells is reported for this substance? 353 (KKQRFRHRNRKGYRSQ; Peptidic transfection agent) [compound 353]
Ans: 25802

Q: Which RF (Relative Fluorescence), DOTMA/SEQ ID NO: 72/Peptide, HeLa Cells is reported for this substance? 218 (SPPRRARVT; Peptidic transfection agent) [compound 218]
Ans: 10081

Q: Which RF (Relative Fluorescence), DOTMA/SEQ ID NO: 72/Peptide, HeLa Cells is reported for this substance? 454 (TGLSCLQRFTTM; Peptidic transfection agent) [compound 454]
Ans: 16023

Q: Which RF (Relative Fluorescence), DOTMA/SEQ ID NO: 72/Peptide, HeLa Cells is reported for this substance? 237 (KNSFMALYLSKG; Peptidic transfection agent) [compound 237]
Ans: 8288

Q: Which RF (Relative Fluorescence), DOTMA/SEQ ID NO: 72/Peptide, HeLa Cells is reported for this substance? 343 (LFSHAVSSNG; Peptidic transfection agent) [compound 343]
Ans: 8160
